Please respond with reported HORVW for every item in the list.
Test system: HORVW (Hordeum vulgare—barley)
Test: B1 glasshouse post-emergence herbicidal activity, barley
Assay type: in vivo
Settings: Rate 250 g/ha; after 14 days; 100=total damage, 0=no damage
Answers are plain numbers.

MOLECULE: COc1ccc(-n2nc(C)cc(C(=O)C3C(=O)C(C)(C)C(=O)C(C)(C)C3=O)c2=O)cc1OC [Compound 2.5]
ASSAY_READOUT: HORVW
RECORDED_RESULT: 0

MOLECULE: COc1ccc(-n2nc(C)cc(C(=O)C3C(=O)CC(C)(C)CC3=O)c2=O)cc1OC [Compound 2.4]
ASSAY_READOUT: HORVW
RECORDED_RESULT: 10

MOLECULE: COc1ccc(-n2nc(C)cc(C(=O)C3C(=O)CC(C)CC3=O)c2=O)cc1OC (stereo not shown) [Compound 2.2]
ASSAY_READOUT: HORVW
RECORDED_RESULT: 0

MOLECULE: COc1ccc(-n2nc(C)cc(C(=O)C3C(=O)C4CCC(C4)C3=O)c2=O)cc1OC (stereo not shown) [Compound 2.1]
ASSAY_READOUT: HORVW
RECORDED_RESULT: 0

MOLECULE: COc1ccc(-n2nc(C3CC3)cc(C(=O)C3C(=O)C(C)(C)C(=O)C(C)(C)C3=O)c2=O)cc1OC [Compound 2.11]
ASSAY_READOUT: HORVW
RECORDED_RESULT: 0

Respectfully, I request HORVW for each entry included below.
1. COc1ccc(-n2nc(C)cc(C(=O)C3C(=O)CCCC3=O)c2=O)cc1OC [Compound 2.3]
2. COc1ccc(-n2nc(C3CC3)cc(C(=O)C3C(=O)C4CCC(C4)C3=O)c2=O)cc1OC (stereo not shown) [Compound 2.9]

Result:
0
10

====

Please respond with reported HORVW for every item in the list.
Tested on: HORVW (Hordeum vulgare—barley)
Assay: B1 glasshouse post-emergence herbicidal activity, barley
Assay type: in vivo
Conditions: Rate 125 g/ha; after 14 days; 100=total damage, 0=no damage
Numbers only.

Answered examples (2):
COMPOUND: COc1ccc(-n2nc(C)cc(C(=O)C3C(=O)CCCC3=O)c2=O)cc1OC
TARGET_ENTITY: HORVW (Hordeum vulgare—barley)
HORVW: 0
--
COMPOUND: COc1ccc(-n2nc(C3CC3)cc(C(=O)C3C(=O)C4CCC(C4)C3=O)c2=O)cc1OC (stereo not drawn)
TARGET_ENTITY: HORVW (Hordeum vulgare—barley)
HORVW: 0

Please turn your attention to the following entry.
Ask: Any idea what HORVW was measured for COc1ccc(-n2nc(C3CC3)cc(C(=O)C3C(=O)C(C)(C)C(=O)C(C)(C)C3=O)c2=O)cc1OC ?
Result: 0

====

Please respond with reported ECHCG for every item in the list.
Test system: ECHCG (Echinochloa crus-galli)
Test: B1 glasshouse post-emergence herbicidal activity, ECHCG
Format: in vivo
Details: Rate 250 g/ha; after 14 days; 100=total damage, 0=no damage
Answers are plain numbers.

Answered examples (2):
COMPOUND: COc1ccc(-n2nc(C)cc(C(=O)C3C(=O)CC(C)(C)CC3=O)c2=O)cc1OC
ECHCG: 100
//
COMPOUND: COc1ccc(-n2nc(C)cc(C(=O)C3C(=O)C(C)(C)C(=O)C(C)(C)C3=O)c2=O)cc1OC
ECHCG: 90

Ask: Any idea what ECHCG was measured for COc1ccc(-n2nc(C3CC3)cc(C(=O)C3C(=O)C4CCC(C4)C3=O)c2=O)cc1OC (stereo not drawn) ?
Result: 100

====

Tested on: HORVW (Hordeum vulgare—barley)
Test: B1 glasshouse post-emergence herbicidal activity, barley
Assay type: in vivo
Details: Rate 125 g/ha; after 14 days; 100=total damage, 0=no damage
Please respond with reported HORVW for every item in the list.
Numbers only.

Answered examples (3):
COMPOUND: COc1ccc(-n2nc(C)cc(C(=O)C3C(=O)CC(C)(C)CC3=O)c2=O)cc1OC
HORVW: 0

COMPOUND: COc1ccc(-n2nc(C)cc(C(=O)C3C(=O)C(C)(C)C(=O)C(C)(C)C3=O)c2=O)cc1OC
HORVW: 0

COMPOUND: COc1ccc(-n2nc(C)cc(C(=O)C3C(=O)CC(C)CC3=O)c2=O)cc1OC (stereo not shown)
HORVW: 0

Please turn your attention to the following entry.
Ask: Any idea what HORVW was measured for COc1ccc(-n2nc(C)cc(C(=O)C3C(=O)C4CCC(C4)C3=O)c2=O)cc1OC (stereo not shown) ?
Result: 0

Origin of measurements: patent US20190239509A1
